pIC50: −log10 of the molar value.
The following are reported pIC50 results, target or system UniProt Q13547.
Sequence (Q13547 whole entry): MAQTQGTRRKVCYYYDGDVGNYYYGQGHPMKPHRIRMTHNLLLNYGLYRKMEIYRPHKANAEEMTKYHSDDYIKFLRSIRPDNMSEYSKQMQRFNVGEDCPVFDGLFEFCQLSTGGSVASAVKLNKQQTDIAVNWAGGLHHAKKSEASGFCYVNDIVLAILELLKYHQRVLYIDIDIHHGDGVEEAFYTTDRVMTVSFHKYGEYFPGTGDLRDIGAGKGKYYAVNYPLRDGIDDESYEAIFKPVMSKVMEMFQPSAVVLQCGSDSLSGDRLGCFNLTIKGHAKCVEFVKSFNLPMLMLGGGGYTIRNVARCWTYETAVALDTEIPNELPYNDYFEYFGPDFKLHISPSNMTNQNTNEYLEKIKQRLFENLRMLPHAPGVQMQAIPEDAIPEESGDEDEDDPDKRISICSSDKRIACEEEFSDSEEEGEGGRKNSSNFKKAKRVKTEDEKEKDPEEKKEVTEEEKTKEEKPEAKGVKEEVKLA

[
  {
    "Compound": "N[C@@H](CCCCCC(=O)c1ncco1)c1ncc(-c2cccc(C(F)(F)F)c2F)[nH]1 [Example 138]",
    "Measurement target": "UniProt Q13547",
    "pIC50": 8.37
  },
  {
    "Compound": "N[C@@H](CCCCCC(=O)c1ccon1)c1cc(-c2ccc(F)cc2)on1 [Example 118]",
    "Measurement target": "UniProt Q13547",
    "pIC50": 8.62
  },
  {
    "Compound": "COc1cc2c(ccc(=O)n2C)cc1-c1cnc([C@H](CCCCCC(=O)c2ncco2)NC(=O)CN(C)C)[nH]1 [Example 92]",
    "Measurement target": "UniProt Q13547",
    "pIC50": 9.04
  },
  {
    "Compound": "COc1nc2ccccc2cc1-c1cnc([C@H](CCCCCC(=O)c2ncco2)NC(=O)CN2CCCCC2)[nH]1 [Example 53]",
    "Measurement target": "UniProt Q13547",
    "pIC50": 8.62
  },
  {
    "Compound": "Cc1ccc2cc(-c3c[nH]c([C@H](CCCCCC(=O)c4ccon4)NC(=O)[C@H]4CC45CCN(C)CC5)n3)ccc2n1 [Example 44]",
    "Measurement target": "UniProt Q13547",
    "pIC50": 9.62
  },
  {
    "Compound": "COc1cc(O[C@H]2C[C@H](OC)C2)cc(-c2cnc([C@@H](N)CCCCCC(=O)c3ncco3)[nH]2)c1F [Example 144]",
    "Measurement target": "UniProt Q13547",
    "pIC50": 8.15
  },
  {
    "Compound": "COc1nc2ccccc2cc1-c1cnc([C@H](CCCCCC(=O)c2ncco2)NC(=O)CN2CCC2)[nH]1 [Example 51]",
    "Measurement target": "UniProt Q13547",
    "pIC50": 9.42
  }
]

====

This section presents molecules with their documented IC50 values.
Measurement target: HDAC6 (Homo sapiens (Human), UniProt Q9UBN7)
Sequence (Q9UBN7 whole entry): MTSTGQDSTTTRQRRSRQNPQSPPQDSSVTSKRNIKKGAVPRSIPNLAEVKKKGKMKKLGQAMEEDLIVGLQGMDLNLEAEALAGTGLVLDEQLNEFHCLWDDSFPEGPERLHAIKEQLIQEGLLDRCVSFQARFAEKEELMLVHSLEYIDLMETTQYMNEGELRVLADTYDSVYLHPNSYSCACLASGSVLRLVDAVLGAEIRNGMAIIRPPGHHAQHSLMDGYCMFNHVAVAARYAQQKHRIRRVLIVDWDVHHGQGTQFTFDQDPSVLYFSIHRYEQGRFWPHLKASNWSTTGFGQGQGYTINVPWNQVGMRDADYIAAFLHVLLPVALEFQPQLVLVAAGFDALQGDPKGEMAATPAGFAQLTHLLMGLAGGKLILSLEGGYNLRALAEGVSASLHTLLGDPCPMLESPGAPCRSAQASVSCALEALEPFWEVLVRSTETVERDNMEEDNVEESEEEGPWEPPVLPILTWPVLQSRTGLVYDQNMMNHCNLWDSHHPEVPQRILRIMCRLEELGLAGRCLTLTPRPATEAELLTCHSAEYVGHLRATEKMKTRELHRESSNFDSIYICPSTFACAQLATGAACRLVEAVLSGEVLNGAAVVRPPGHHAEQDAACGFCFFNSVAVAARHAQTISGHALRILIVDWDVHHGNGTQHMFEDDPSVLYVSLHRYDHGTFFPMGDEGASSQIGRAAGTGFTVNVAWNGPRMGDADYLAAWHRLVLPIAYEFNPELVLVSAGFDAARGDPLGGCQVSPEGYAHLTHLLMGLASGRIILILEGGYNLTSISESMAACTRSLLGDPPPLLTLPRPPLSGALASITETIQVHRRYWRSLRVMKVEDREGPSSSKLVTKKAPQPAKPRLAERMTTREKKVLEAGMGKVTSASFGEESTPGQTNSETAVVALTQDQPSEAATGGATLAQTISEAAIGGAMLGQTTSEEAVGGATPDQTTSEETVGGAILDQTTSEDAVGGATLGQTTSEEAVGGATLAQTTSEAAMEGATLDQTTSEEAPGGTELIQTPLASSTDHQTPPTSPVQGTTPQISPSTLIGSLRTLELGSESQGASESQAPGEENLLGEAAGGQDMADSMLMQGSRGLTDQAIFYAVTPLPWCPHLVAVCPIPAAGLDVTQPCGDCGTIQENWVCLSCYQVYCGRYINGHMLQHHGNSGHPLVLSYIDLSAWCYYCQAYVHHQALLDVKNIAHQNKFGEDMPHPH
Assay explanation: biochemical

[
  {
    "Molecule": "Cc1ccc2cc(-c3cnc([C@H](CCCCCC(=O)c4ncco4)NC(=O)[C@H]4CC45CCN(C)CC5)o3)ccc2n1 [Example 109]",
    "IC50": "23 µM"
  },
  {
    "Molecule": "O=C1NC(CCCCCC(=O)c2ncco2)(c2nc(-c3ccc(F)cc3)c[nH]2)CO1 (stereo not shown) [Example 66]",
    "IC50": "≥ 45 µM"
  },
  {
    "Molecule": "COc1cc2nc(C)ccc2cc1-c1cnc([C@H](CCCCCC(=O)c2ncco2)NC(=O)C2CCN(C)CC2)[nH]1 [Example 98]",
    "IC50": "1 µM"
  },
  {
    "Molecule": "COc1cc2nc(C)ccc2cc1-c1cnc([C@H](CCCCCC(=O)c2ccon2)NC(=O)C2CN(C)C2)o1 [Example 108]",
    "IC50": "> 0.9 µM"
  },
  {
    "Molecule": "O=C1CC[C@@](CCCCCC(=O)c2ccon2)(c2nc(-c3ccc(-c4ncco4)cc3F)c[nH]2)N1 [Example 67]",
    "IC50": "≥ 45 µM"
  },
  {
    "Molecule": "COc1cc2nc(C)ccc2cc1-c1cnc([C@@H](N)CCCCCC(=O)c2ncco2)o1 [Example 27]",
    "IC50": "1.11 µM"
  },
  {
    "Molecule": "COc1ncccc1-c1cnc([C@@H](N)CCCCCC(=O)c2ncco2)o1 [Example 28]",
    "IC50": "0.655 µM"
  },
  {
    "Molecule": "N#Cc1nc(-c2ccc(F)cc2)[nH]c1[C@@H](N)CCCCCC(=O)c1ncco1 [Example 185]",
    "IC50": "≥ 45 µM"
  },
  {
    "Molecule": "Cc1ccc2cc(-c3c[nH]c([C@H](CCCCCC(=O)c4ncco4)NC4CCOCC4)n3)ccc2n1 [Example 79]",
    "IC50": "≥ 45 µM"
  },
  {
    "Molecule": "CN1CC(C(=O)N[C@@H](CCCCCC(=O)c2ncco2)c2[nH]c(-c3ccc(F)cc3)nc2Cl)C1 [Example 101]",
    "IC50": "≥ 45 µM"
  },
  {
    "Molecule": "CN(C)CC(=O)N[C@@H](CCCCCC(=O)c1ncco1)c1oc(-c2ccc(F)cc2)nc1C#N [Example 190]",
    "IC50": "≥ 45 µM"
  },
  {
    "Molecule": "N[C@@H](CCCCCC(=O)c1ncco1)c1[nH]c(-c2ccc(F)cc2)nc1Cl [Example 25]",
    "IC50": "≥ 45 µM"
  },
  {
    "Molecule": "O=C1CC[C@](CCCCCC(=O)c2ncco2)(c2ncc(-c3ccc(F)cc3)[nH]2)N1 [Example 65]",
    "IC50": "≥ 45 µM"
  },
  {
    "Molecule": "COc1cc2ncccc2cc1-c1c[nH]c([C@@H](N)CCCCCC(=O)c2ncco2)n1 [Example 23]",
    "IC50": "31 µM"
  },
  {
    "Molecule": "CN[C@@H](CCCCCC(=O)c1ncco1)c1ncc(-c2cc3ccc(=O)n(C)c3cc2OC)[nH]1 [Example 76]",
    "IC50": "> 0.9 µM"
  },
  {
    "Molecule": "CCn1ccc2cc(-c3cnc([C@H](CCCCCC(=O)c4ccon4)NC(=O)CN(C)C)[nH]3)c(OC)cc2c1=O [Example 94]",
    "IC50": "20 µM"
  }
]

Values compiled from patent US12331044B2.
